biological target: D(2) dopamine receptor (Homo sapiens); assay: Displacement of [3H]spiperone from dopamine D2 receptor expressed in HEK293 cells by liquid scintillation counting
Sequence (P14416 whole entry): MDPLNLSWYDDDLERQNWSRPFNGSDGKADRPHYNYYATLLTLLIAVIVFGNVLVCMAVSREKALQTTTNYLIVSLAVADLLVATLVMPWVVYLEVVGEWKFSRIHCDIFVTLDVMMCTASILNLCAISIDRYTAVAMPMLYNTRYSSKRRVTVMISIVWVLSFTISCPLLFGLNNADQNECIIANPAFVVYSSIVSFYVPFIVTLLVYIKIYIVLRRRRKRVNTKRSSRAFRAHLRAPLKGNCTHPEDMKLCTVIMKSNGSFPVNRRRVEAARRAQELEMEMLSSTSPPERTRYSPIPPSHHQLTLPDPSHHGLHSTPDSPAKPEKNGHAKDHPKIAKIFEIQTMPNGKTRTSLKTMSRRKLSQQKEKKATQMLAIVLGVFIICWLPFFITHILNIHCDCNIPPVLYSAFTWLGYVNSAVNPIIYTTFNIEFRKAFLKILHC
pKi: −log10 of the molar value.
Readout Type: pKi

Compound | Result Number
COc1ccccc1N1CCN(CCCn2cc(CCCCN3CCc4cc(O)c(O)cc4C(c4cccc(C)c4)C3)nn2)CC1 (racemic) | 7.10
COc1ccccc1N1CCN(CCCn2cc(CCCN3CCc4cc(O)c(O)cc4C(c4ccccc4C)C3)nn2)CC1 (racemic) | 7.41
Cc1cccc(C2CN(CCCc3cn(CCCN4CCN(c5nsc6ccccc56)CC4)nn3)CCc3cc(O)c(O)cc32)c1 (racemic) | 6.70

[a] COc1ccccc1N1CCN(CCCn2cc(CCCN3CCc4cc(O)c(O)cc4C(c4cccc(C)c4)C3)nn2)CC1 (racemic)
[b] COc1ccccc1N1CCN(CCCc2cn(CCCN3CCc4cc(O)c(O)cc4C(c4ccccc4C)C3)nn2)CC1 (racemic)
Which has the higher pKi, a or b ? # reply format: chosen label
b
